molecular target: HLA-B*4001 (Homo sapiens, UniProt P01889, A65T/A93T/A95T/D138N/D98Y/E176V/E69K/N87E/Q56L/Q94N/R180L/S121R/S35A/S48T/T167S/V36M/W171L/Y33H/Y91S); experiment: biochemical; type: binding; conditions: read-out: B*4001
reported.property: IC50 (µM)
Supply the numeric figure in µM, leaving out any unit text.

RERPDNYV: 71.6

The record that follows has no IC50 shown yet.
Asked: What does the record list as IC50 for ATNLWVTVY ?
Given back: 0.487

###

molecular target: HLA-DR DRB1*0401 (DR4) (Homo sapiens, UniProt P01903+P01911, A100K/A169T/F76Y/I96L/K127E/L162R/M171V/N62H/P40V/Q125Y/R42H/S133A/S149N/S66Y/V115G/V209L/W38E); assay: biochemical; type: binding; details: DRB1 *0401
// IC50 lookup, one value per entry
Supply the numeric figure in µM, leaving out any unit text.

Would you please look over these solved cases?
CC(C)C[C@H](NC(=O)[C@H](CCC(N)=O)NC(=O)[C@H](CCC(N)=O)NC(=O)[C@H](CC(C)C)NC(=O)[C@@H](NC(=O)[C@H](CCCNC(=N)N)NC(=O)[C@@H](N)CC(C)C)[C@@H](C)O)C(=O)N[C@@H](Cc1ccccc1)C(=O)N[C@@H](CC(C)C)C(=O)N[C@@H](CO)C(=O)N[C@H](C(=O)N[C@@H](CC(C)C)C(=O)N[C@@H](CO)C(=O)N[C@@H](Cc1ccccc1)C(=O)N[C@H](C(=O)O)C(C)C)[C@@H](C)O: 0.018
CC[C@H](C)[C@H](NC(=O)[C@H](CO)NC(=O)[C@H](CC(=O)O)NC(=O)[C@H](CCCNC(=N)N)NC(=O)[C@H](Cc1ccc(O)cc1)NC(=O)[C@@H](NC(=O)[C@@H](NC(=O)[C@H](Cc1ccccc1)NC(=O)[C@@H](N)CC(C)C)C(C)C)C(C)C)C(=O)N1CCC[C@H]1C(=O)N[C@@H](Cc1c[nH]cn1)C(=O)N[C@@H](C)C(=O)N[C@@H](C)C(=O)N[C@@H](CS)C(=O)N[C@@H](Cc1c[nH]cn1)C(=O)O: 0.003

The record that follows has no IC50 shown yet.
Asked: What does the record list as IC50 for CC[C@H](C)[C@H](NC(=O)CNC(=O)[C@H](CC(C)C)NC(=O)[C@H](CC(C)C)NC(=O)[C@H](CCCNC(=N)N)NC(=O)[C@H](CO)NC(=O)[C@@H](NC(=O)[C@H](Cc1ccc(O)cc1)NC(=O)[C@@H]1CCCN1C(=O)[C@H](CO)NC(=O)CNC(=O)[C@@H](NC(=O)CN)C(C)C)C(C)C)C(=O)N[C@@H](CS)C(=O)N[C@@H](CC(C)C)C(=O)O ?
Given back: 1.57

###

target: HLA-DR DRB1*0802 (DR8) (Homo sapiens, UniProt P01903+P01911, A100R/A103L/A169T/F76Y/H45Y/I96F/K41T/L162R/M171V/P40S/Q125H/Q178H/Q39Y/Q99D/R218S/R42G/S66Y/V115G/W38E); assay: biochemical; format: binding
reported.property: IC50 (µM)
Supply the numeric figure in µM, leaving out any unit text.

CC(C)C[C@H](N)C(=O)N[C@@H](CCC(=O)O)C(=O)N1CCC[C@H]1C(=O)N[C@@H](Cc1c[nH]c2ccccc12)C(=O)N[C@@H](CC(N)=O)C(=O)N[C@@H](Cc1c[nH]cn1)C(=O)N1CCC[C@H]1C(=O)NCC(=O)N[C@@H](CO)C(=O)N[C@@H](CCC(N)=O)C(=O)N1CCC[C@H]1C(=O)N[C@@H](CCCCN)C(=O)N[C@H](C(=O)N[C@@H](C)C(=O)N[C@@H](CS)C(=O)N[C@H](C(=O)O)[C@@H](C)O)[C@@H](C)O: 69.2

Asked: What does the record list as IC50 for CC[C@H](C)[C@H](NC(=O)[C@H](CCCCN)NC(=O)[C@H](CC(N)=O)NC(=O)[C@@H](NC(=O)[C@@H](NC(=O)[C@H](CC(C)C)NC(=O)[C@@H](NC(=O)[C@H](CO)NC(=O)[C@H](CC(C)C)NC(=O)[C@H](C)N)[C@@H](C)O)C(C)C)C(C)C)C(=O)N[C@@H](CCCNC(=N)N)C(=O)NCC(=O)N[C@H](C(=O)N[C@@H](Cc1ccccc1)C(=O)N[C@@H](CCCCN)C(=O)O)[C@@H](C)O ?
Given back: 0.02

###

target: HLA-DR DRB1*0701 (DR7) (Homo sapiens, UniProt P01903+P01911, A100R/A102G/A103Q/D57E/D86V/E43K/F76Y/K127E/L162R/M171V/P40G/Q125H/Q99D/R33Q/R42Y/R54Q/S133A/S66F/T210M/V115G/Y107V/Y59L/Y89S); experiment: biochemical; type: binding; details: DRB1 *0701
// IC50 lookup, one value per entry
Supply the numeric figure in µM, leaving out any unit text.

Would you please look over these solved cases?
CC[C@H](C)[C@H](NC(=O)[C@H](CO)NC(=O)[C@H](CC(N)=O)NC(=O)[C@H](C)NC(=O)[C@H](CC(C)C)NC(=O)[C@H](CCC(=O)O)NC(=O)[C@H](Cc1ccccc1)NC(=O)[C@@H](NC(=O)[C@H](CCSC)NC(=O)CN)C(C)C)C(=O)N[C@H](C(=O)N[C@@H](CC(C)C)C(=O)N1CCC[C@H]1C(=O)N[C@@H](Cc1ccccc1)C(=O)N[C@@H](CC(=O)O)C(=O)O)C(C)C: 0.03
CC[C@H](C)[C@H](NC(=O)[C@H](Cc1c[nH]c2ccccc12)NC(=O)[C@@H](NC(=O)[C@@H](NC(=O)[C@H](CO)NC(=O)[C@H](CC(C)C)NC(=O)[C@@H](N)[C@@H](C)O)C(C)C)[C@@H](C)O)C(=O)NCC(=O)N[C@@H](C)C(=O)N[C@@H](C)C(=O)N1CCC[C@H]1C(=O)N[C@@H](CC(C)C)C(=O)N[C@H](C(=O)N[C@@H](CC(C)C)C(=O)N[C@@H](CO)C(=O)O)[C@@H](C)CC: 0.016
CC[C@H](C)[C@H](NC(=O)[C@H](CO)NC(=O)[C@H](CO)NC(=O)[C@H](CC(=O)O)NC(=O)[C@H](C)NC(=O)[C@H](CC(N)=O)NC(=O)[C@@H](NC(=O)[C@H](Cc1ccc(O)cc1)NC(=O)[C@H](C)NC(=O)[C@@H](N)C(C)C)[C@@H](C)CC)C(=O)N[C@@H](CCC(=O)O)C(=O)NCC(=O)N[C@@H](CC(N)=O)C(=O)N[C@@H](Cc1ccc(O)cc1)C(=O)N[C@H](C(=O)O)[C@@H](C)O: 9.74

The record that follows has no IC50 shown yet.
Asked: What does the record list as IC50 for CC[C@H](C)[C@H](NC(=O)[C@@H](NC(=O)[C@@H]1CCCN1C(=O)CNC(=O)[C@@H](NC(=O)[C@H](CC(C)C)NC(=O)[C@H](CCC(=O)O)NC(=O)[C@H](C)NC(=O)[C@@H](N)Cc1ccccc1)C(C)C)C(C)C)C(=O)N1CCC[C@H]1C(=O)N[C@@H](CCC(N)=O)C(=O)N[C@@H](CC(=O)O)C(=O)N[C@@H](Cc1c[nH]c2ccccc12)C(=O)N[C@@H](CO)C(=O)N[C@H](C(=O)O)[C@@H](C)O ?
Given back: 24.1

###

target: HLA-DR DRB1*0101 (DR1) (Homo sapiens, UniProt P01903+P01911, A100R/D57E/F55L/F60I/F76Y/I96L/L162R/M171V/P40L/Q125E/R42F/V115G/Y59C); experiment: biochemical; assay type: binding; conditions: DRB1 *0101
pIC50: −log10 of the molar value.
reported.property: pIC50

Would you please look over these solved cases?
CC(C)C[C@H](NC(=O)[C@H](C)NC(=O)[C@H](Cc1ccccc1)NC(=O)[C@@H](N)[C@@H](C)O)C(=O)N[C@@H](Cc1c[nH]c2ccccc12)C(=O)N[C@@H](CCCNC(=N)N)C(=O)N[C@H](C(=O)N[C@@H](CO)C(=O)N[C@@H](C)C(=O)N[C@@H](CCC(=O)O)C(=O)N[C@@H](CCC(=O)O)C(=O)N[C@@H](Cc1ccc(O)cc1)C(=O)O)C(C)C: < 5.28
C[C@H](N)C(=O)N[C@@H](CO)C(=O)N[C@@H](C)C(=O)N[C@@H](C)C(=O)N[C@@H](C)C(=O)N[C@@H](C)C(=O)N[C@@H](C)C(=O)N[C@@H](C)C(=O)N[C@@H](C)C(=O)N[C@@H](C)C(=O)N[C@@H](C)C(=O)N[C@@H](C)C(=O)N[C@@H](C)C(=O)O: ≤ 4.30

Asked: What does the record list as pIC50 for CC[C@H](C)[C@H](NC(=O)[C@@H]1CCCN1C(=O)[C@H](CC(=O)O)NC(=O)[C@@H](NC(=O)[C@@H]1CCCN1C(=O)[C@H](Cc1ccccc1)NC(=O)[C@@H](NC(=O)[C@H](CC(=O)O)NC(=O)[C@@H](NC(=O)[C@@H]1CCCN1C(=O)[C@H](CO)NC(=O)[C@@H](N)CCCNC(=N)N)[C@@H](C)CC)[C@@H](C)O)[C@@H](C)O)C(=O)N[C@@H](CCCCN)C(=O)N[C@@H](CCC(=O)O)C(=O)N[C@@H](CO)C(=O)O ?
Given back: < 4.30
